Attribution: ChEMBL document CHEMBL2406917

Assay: Total antioxidant capacity of the compound at 25 uM relative to control
Format: physicochemical

| MOLECULE | UNIT_ANNOTATION | TAC |
| --- | --- | --- |
| O=C1CC(c2c(O)cc(/C=C/c3ccc(O)c(O)c3)oc2=O)CN1 (stereo not drawn) | U | 2.41 |
| O=c1cc(O)cc(/C=C/c2ccc(O)c(O)c2)o1 | U | 5.83 |
| COC(=O)CCC(c1c(O)cc(/C=C/c2ccc(O)c(O)c2)oc1=O)c1c(O)cc(/C=C/c2ccc(O)c(O)c2)oc1=O | U | 3 |
| O=C(O)CCC(c1c(O)cc(/C=C/c2ccc(O)c(O)c2)oc1=O)c1c(O)cc(/C=C/c2ccc(O)c(O)c2)oc1=O | U | 6.82 |
| CC(c1c(O)cc(/C=C/c2ccc(O)c(O)c2)oc1=O)c1c(O)cc(/C=C/c2ccc(O)c(O)c2)oc1=O | U | 2.02 |
| CC(C)C(c1c(O)cc(/C=C/c2ccc(O)c(O)c2)oc1=O)c1c(O)cc(/C=C/c2ccc(O)c(O)c2)oc1=O | U | 2.1 |
| O=C1O[C@H]([C@@H](O)CO)C(O)=C1O | U | 17.33 |
| CC(C)CC(c1c(O)cc(/C=C/c2ccc(O)c(O)c2)oc1=O)c1c(O)cc(/C=C/c2ccc(O)c(O)c2)oc1=O | U | 3.61 |
